Could you please report measured TGI for the items listed next?
Tested on: UACC-62 melanoma
assay.info: NCI tumour cell line growth inhibition, 48 h

Known TGI results, listed for orientation:
molecule | TGI
Brc1ccc2ns[s+]c2c1 | > 20.5 µM
Nc1ncnc2c1ncn2C1OC(CO)C(O)C1N (stereo unspecified) | > 100 µM
N#C/C(=C/NC(=S)c1ccncc1)C(N)=O | > 100 µM

I would be grateful if you could provide TGI for each of the following entries.
1. COc1cc2c3c(n(C)c(=O)c2cc1OC)-c1ccc(C#N)cc1C3=O
2. COc1cccc(-c2cc(=O)c3ccccc3[nH]2)c1

["> 100 µM", "> 100 µM"]

I would be grateful if you could provide TGI for each of the following entries.
1. O=C1Cc2cc(C(=O)NC3C[C@H]4CC[C@@H](C3)N4S(=O)(=O)CC3CCN(CCCC(F)(F)F)CC3)c(Cl)cc2N1 (stereo partly specified)
2. O=C(CC(Cl)=C(Cl)Cl)c1cccc(Cl)c1Cl
3. NC(=S)c1c(N)n(C2OC(CO)C(O)C2O)c2ncnc(N)c12 (stereo unspecified)
4. CCN1CCN(C(=O)[C@]23CCC(C)(C)C[C@@H]2C2=CC[C@@H]4[C@@]5(C)C/C(=C/c6ccncc6)C(=O)C(C)(C)[C@@H]5CC[C@@]4(C)[C@]2(C)CC3)CC1
5. COc1cc(N(Cc2ccc3oc(=O)c(-c4ccccc4)nc3c2)Cc2ccc3oc(=O)c(-c4ccccc4)nc3c2)cc(OC)c1OC
6. CCOC(=O)C1=COC(C)(CCc2ccccc2)CC1=O (stereo unspecified)
7. COC(OC)[C@@H]1OC[C@@H](O)[C@@H]1n1cnc2c(N)ncnc21

1. > 100 µM
2. > 100 µM
3. 1.37 µM
4. 2.82 µM
5. > 10 µM
6. > 100 µM
7. > 100 µM

I would be grateful if you could provide TGI for each of the following entries.
1. O=C(NNc1nc(-c2ccccc2)cs1)C(F)(F)F
2. COc1cc(-c2nn(-c3cccc(NC(=O)c4ccc(Cl)c(C(F)(F)F)c4)c3)cc2-c2ccncc2)ccc1Cl
3. C=CCc1cc(OC)c2c(c1)C(OC)CC(c1ccc(OC)c(OC)c1)O2 (stereo unspecified)
4. O=C(COc1cccc(/C=C2\CSc3ccccc3C2=O)c1)Nc1nccs1
5. O=C(NC(=S)NC(=O)c1cc(O)c(O)c(O)c1)c1cc(O)c(O)c(O)c1
6. c1cc2c(cn1)Nc1ccncc1S2
7. Cn1c(N/N=C/c2ccccc2)nc(-c2ccc([N+](=O)[O-])cc2)c(C#N)c1=O
8. CC(C)C1N(C)c2ccc(Cl)cc2[C@H]2c3ccccc3CCN12 (stereo partly specified)

1. > 100 µM
2. > 32.5 µM
3. > 100 µM
4. 3.12 µM
5. 49.4 µM
6. > 100 µM
7. 97.5 µM
8. > 100 µM

I would be grateful if you could provide TGI for each of the following entries.
1. COc1ccc(/C=C/C(=O)c2sc(-n3nc(-c4ccccc4)cc3-c3ccccc3)nc2C)cc1
2. COc1cccc(/C=C2\COc3ccc(-c4ccccc4)cc3C2=O)c1
3. Cc1ccc(NC(=O)C(=O)CC(=O)c2sc(Nc3c(C)cccc3C)nc2C)cc1C
4. CSc1c(C(=O)Nc2ccc(Cl)cc2)c(N)n(N)c(=O)c1C#N

1: > 100 µM; 2: 12.8 µM; 3: > 100 µM; 4: > 100 µM
